- test-system: Bile acid receptor (Homo sapiens)
- Sequence (Q96RI1 whole entry): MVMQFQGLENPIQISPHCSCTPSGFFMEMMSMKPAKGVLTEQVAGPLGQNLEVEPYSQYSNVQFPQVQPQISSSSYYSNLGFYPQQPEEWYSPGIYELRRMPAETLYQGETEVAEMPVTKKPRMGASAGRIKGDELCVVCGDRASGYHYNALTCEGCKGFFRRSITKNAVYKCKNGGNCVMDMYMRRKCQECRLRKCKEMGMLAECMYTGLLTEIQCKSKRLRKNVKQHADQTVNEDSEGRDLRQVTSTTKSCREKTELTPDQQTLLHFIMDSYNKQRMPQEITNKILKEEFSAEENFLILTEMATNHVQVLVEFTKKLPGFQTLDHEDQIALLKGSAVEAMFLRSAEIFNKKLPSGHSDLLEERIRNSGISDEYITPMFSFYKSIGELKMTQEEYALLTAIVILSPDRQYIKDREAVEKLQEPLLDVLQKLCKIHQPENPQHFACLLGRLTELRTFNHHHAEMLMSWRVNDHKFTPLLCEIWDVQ
- measurement-protocol: Binding affinity for Farnesoid X Receptor (FXR)
endpoint: EC50

Q: Specify EC50 for C[C@H](CCC(=O)O)C1CC[C@H]2[C@@H]3[C@H](O)[C@H](Cc4ccccc4)C4C[C@H](O)CC[C@]4(C)[C@H]3CC[C@]12C (stereo partly specified) , system Bile acid receptor (Homo sapiens).
Ans: > 30 µM
